So I've got a bunch of compounds here, and I need their percent AR protein degradation at 0.1 µM values.
- tested.on: AR protein (Homo sapiens, UniProt P10275)
- Construct: endogenous in cells; host or cells: VCaP
- Sequence (P10275 1-920): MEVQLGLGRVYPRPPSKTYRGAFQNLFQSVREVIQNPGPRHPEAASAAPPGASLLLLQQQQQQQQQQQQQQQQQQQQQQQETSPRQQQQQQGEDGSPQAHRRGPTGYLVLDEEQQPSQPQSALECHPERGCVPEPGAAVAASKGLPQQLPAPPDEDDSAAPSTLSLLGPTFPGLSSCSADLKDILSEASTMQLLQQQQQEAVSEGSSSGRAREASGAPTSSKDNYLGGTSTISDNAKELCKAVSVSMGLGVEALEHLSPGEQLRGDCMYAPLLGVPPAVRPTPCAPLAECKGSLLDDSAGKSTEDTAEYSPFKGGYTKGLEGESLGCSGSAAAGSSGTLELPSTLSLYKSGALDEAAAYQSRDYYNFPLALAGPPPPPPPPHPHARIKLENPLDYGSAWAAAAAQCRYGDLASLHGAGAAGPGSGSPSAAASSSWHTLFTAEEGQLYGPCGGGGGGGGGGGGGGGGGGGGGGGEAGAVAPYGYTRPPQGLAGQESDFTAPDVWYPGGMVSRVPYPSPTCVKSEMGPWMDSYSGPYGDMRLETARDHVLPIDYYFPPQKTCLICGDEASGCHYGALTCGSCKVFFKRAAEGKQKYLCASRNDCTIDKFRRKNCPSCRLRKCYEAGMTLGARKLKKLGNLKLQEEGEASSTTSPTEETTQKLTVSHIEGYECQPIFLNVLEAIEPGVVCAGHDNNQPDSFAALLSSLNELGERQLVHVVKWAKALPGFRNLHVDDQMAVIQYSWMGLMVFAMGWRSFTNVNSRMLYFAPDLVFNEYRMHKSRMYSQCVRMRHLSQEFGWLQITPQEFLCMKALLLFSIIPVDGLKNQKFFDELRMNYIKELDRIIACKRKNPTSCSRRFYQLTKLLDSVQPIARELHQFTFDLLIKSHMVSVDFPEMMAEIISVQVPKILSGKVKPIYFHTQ
- assay.name: AR protein degradation in VCaP cells, Western blotting
- Type: cell-based
- measurement.conditions: 100 nM, 24 hr treatment

Qu. Tell me percent AR protein degradation at 0.1 µM reported for CN(c1ccc(C#N)c(Cl)c1)[C@H]1CC[C@H](NC(=O)c2ccc(CN3CCC(N4Cc5cc6c(cc5C4)C(=O)N(C4CCC(=O)NC4=O)C6=O)CC3)cc2)CC1 (stereo partly drawn) [compound 278]
Ans. > 90%

Qu. Identify the reported percent AR protein degradation at 0.1 µM for the following entry. N#Cc1ccc(O[C@H]2CC[C@H](Nc3ccc(C(=O)N4CCC(CN5Cc6cc7c(cc6C5)C(=O)N(C5CCC(=O)NC5=O)C7=O)CC4)cc3)CC2)cc1Cl (stereo partly drawn) [compound 9]
Ans. 50 to 90%

Qu. Item N#Cc1ccc(N[C@H]2CC[C@H](NC(=O)c3ccc(N4CC(CN5Cc6cc7c(cc6C5)C(=O)N(C5CCC(=O)NC5=O)C7=O)C4)cc3)CC2)cc1Cl (stereo partly drawn) [compound 22] : provide percent AR protein degradation at 0.1 µM
Ans. > 90%

Qu. Indicate its recorded percent AR protein degradation at 0.1 µM; the compound in question is CN(c1ccc(C#N)c(Cl)c1)[C@H]1CC[C@H](NC(=O)c2ccc(N3CCC(CN4Cc5cc6c(cc5C4)C(=O)N(C4CCC(=O)NC4=O)C6=O)CC3)cc2)CC1 (stereo partly drawn) [compound 20]
Ans. > 90%

Qu. Find the measured percent AR protein degradation at 0.1 µM of N#Cc1ccc(O[C@H]2CC[C@H](NC(=O)c3ccc4c(c3)CCN(CC(=O)N3CCc5cc6c(cc5C3)C(=O)N(C3CCC(=O)NC3=O)C6=O)C4)CC2)cc1Cl (stereo partly drawn) [compound 28] and report it.
Ans. 50 to 90%

Qu. Please look at this compound and report its percent AR protein degradation at 0.1 µM: CN(c1ccc(C#N)c(Cl)c1)[C@H]1CC[C@H](NC(=O)c2ccc(N3CC(CN4Cc5cc6c(cc5C4)C(=O)N(C4CCC(=O)NC4=O)C6=O)C3)cc2)CC1 (stereo partly drawn) [compound 23]
Ans. > 90%
